# maps each entry to its Enzyme Activity Endpoint Assay: Fab′2
molecular target: pooled human IgG (human IgG1,2,3 and 4)
Hi, when you answer, please include the unit after the number. Thanks!

Sample PRT-454 (protein) MITSVWTKGVTPPTDFIKGEDVFHAPYKAGQGWYDITKAFDGGDDLLCGAATAGNMLHWWFDQNKDQIEAYLKEHPEKQKINFNGEQMFDVKEAIDTKDDQTNSELFNYFKEKAFPYLSTKHLGVFPDHVLDMFINGYRLSLTNHGPTPVKRQEKDPRGGIFDAVFGRGDQTKLLTSRHDFKEKTLNEISQLIKQELTEGKALALSHTYANVRINHVINLWGADFDAEGNLEAIYVTDSDSNASIGMKKYFVGVNSAGKVAISAKEIEDDNIGAQVLGLFTLSTGQKIWNKTNLEHHHHHH ; Enzyme Activity Endpoint Assay: Fab′2 observed: 217 ng/µL

Sample PRT-300 (protein) MVTSVWTKGVTPPTDFIKGEDVFHAPYKAGQGWYDITKTFNGKDDLLCGAATAGNMLHWWFDQNKEYIEAYLKKHPEKQKIMFGDQELLDVRKAINTKGSQKNSELFNYFRDKAFPNLSARRLGVMPDLVLDMFINGYYLNVTKTQTTDVNRTYQEKDKRGGIFDAVFTRGDQSKLLTSRHDFKEKGLKEISDLIKQELTEGKALGLSHTYANVRLNHVINLWGADFDSDGNLKAIYVTDSDSNASIGMKKYFVGVNSSGKVAISAKEIKEDNIGAQVLGLFTLSTGQDIWNQTN ; Enzyme Activity Endpoint Assay: Fab′2 observed: 333 ng/µL

Sample PRT-458 (protein) MVTSVWTKGVTPPTDFIKGEDVFHAPYKAGQGWYDITKTFNGKDDLLCGAATAGNMLHWWFDQNKDQIERYLKEHPEKQKINFNGEQMFDVKEAIDTKDSQTDSKLFEYFKEKAFPYLSTKHLGVFPDHVLDMFINGYRLSLTNHGPTPVKEGSKDPRGGIFDAVFTRGDQSKLLTSRHDFKEKTLKEISDLIKQELTEGKALGLSHTYANVRINHVINLWGADFDSEGNLKAIYVTDSDSNASIGMKKYFVGVNSAGKVAISAKEIKEDNIGAQVLGLFTLSTGQDIWNQTNLEHHHHHH ; Enzyme Activity Endpoint Assay: Fab′2 observed: 598 ng/µL

Sample PRT-110 (protein) MRNATEAYAKEVPHQITSVWTKGVTPPTPEQFRYNNEDVFHAPYTAHQGWYDITKTFDGKDNLLCGAATAGNMLHWWFDQNKTEIEAYLSKHPEKQKIIFNNQELFDLKAAIDTKDSQTNSALFNYFRDKAFPNLSARQLGVMPDLVLDMFINGYYLNVFKTQSTDVNRPYQDKDKRGGIFDAVFTRGDQTTLLTARHDLKNKTLNDISTIIKQELTEGRALALSHTYANVSISHVINLWGADFNAEGNLEAIYVTDSDSNASIGMKKYFVGVNASGKVAISAKKIEGENIGAQVLGLFTLSSGKDIWQKLS ; Enzyme Activity Endpoint Assay: Fab′2 observed: 575 ng/µL

Sample PRT-107 (protein) MRNATEAYAKEVPHQITSVWTKGVTPLTPEQFRYNNEDVIHAPYLANQGWYDITKAFDGKDNLLCGAATAGNMLHWWFDQNKTEIEAYLSKHPEKQKIIFNNQELFDLKAAIDTKDSQTNSQLFNYFRDKAFPNLSARQLGVMPDLVLDMFINGYYLNVFKTQSTDVNRPYQTKDKRGGIFDAVFTRGDQTTLLTARHDLKNKGLNDISTIIKQELTEGKALALSHTYANVSISHVINLWGADFNAEGNLEAIYVTDSDANASIGMKKYFVGVNAAGHVAISAKKIEGENIGAQVLGLFTLSSGKDIWQKLS ; Enzyme Activity Endpoint Assay: Fab′2 observed: 553 ng/µL
